# System under test: T1, human GITR (Glucocorticoid-induced TNFR-related gene, TNFRSF18) (human, UniProt Q9Y5U5 26-241)
# T1 construct: also called AITR; huGITR
# T1 sequence: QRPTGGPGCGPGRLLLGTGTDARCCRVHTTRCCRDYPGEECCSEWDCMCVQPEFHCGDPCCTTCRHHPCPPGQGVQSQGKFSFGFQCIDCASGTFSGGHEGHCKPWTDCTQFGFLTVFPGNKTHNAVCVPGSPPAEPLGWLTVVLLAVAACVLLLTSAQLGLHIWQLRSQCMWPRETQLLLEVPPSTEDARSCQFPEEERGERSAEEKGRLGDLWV
# Protocol notes: flow cytometry (MFI), antibody titration on anti-CD3-activated primary human T cells (CD25+CD4+)
Record form. Attribute: log10 EC50. Fill in for each entry.
// do not treat as linear: log10 of EC50, unit µg/mL

For orientation, consider the following solved cases.
Binder | log10 EC50
33F6 (antibody, human IgG1, kappa, V domains shown, Fully human parental antibody; also called Ab3; SS-12414) VH: QVQLVESGGGVVQPGRSLRLSCAASGFTFSNYGMHWVRQAPGKGLEWVAVIWYVGSNKYYADSVKGRFTISRDNSKNTLYLQMNSLRAEDTAVYYCARGGELRLYYYYGMDVWGQGTTVTVSS VL: DIQMTQSPSSLSASVGDRVTITCRASQGIRNDLGWYQQKPGKAPKRLIYAASSLQSGVPSRFSGSGSGTEFTLTVSSLQPEDFATYYCLQLNSYPWTFGQGTKVEIKR | -1.28
41G5 (antibody, human IgG1, kappa, V domains shown, Fully human parental antibody; also called Ab7; SS-12428) VH: QVQLVESGGGVVQPGRSLRLSCAASGFTFSSYGMHWVRQAPGKGLEWVAVIWYPGSNKYYADSVKGRFTISRDNSKNTLYLQMNSLRAEDTAVYYCARGGELGRYYYYGMDVWGQGTTVTVSS VL: DIQMTQSPSSLSASVGDRVTVTCRASQGIRNDLGWYQQKPGKAPKRLIYAASSLQSGVPSRFSGSGSGTEFTLTISSLQPEDFATYYCLQHNNYPWTFGQGTKVDIKR | -1.48

# return log10 EC50 for each item in the list
1. 49D9v1 (antibody, human IgG1, kappa, V domains shown, tied to 49D9v1 by Ab22 / SS-12562; also called Ab22; SS-12562) VH: QMQLVESGGGVVQPGGSLRLSCAASGFTFSSYGMHWVRQAPGKGLEWVAVIWYAGSNKYYADSVKGRFTISRDNSKNTLYLQMNSLRAEDTAVYYCARGGRLGFYYYYGMDVWGQGTTVTVSS VL: DIQMTQSPSSLSASVGDRVTITCRASQGIRNDLGWYQQKPGKAPKRLIYAASSLQSGVPSRFSGSGSGTEFTLTISSLQPEDFATYYCLQLNSYPWTFGQGTKVEIKR
2. 33C9 (antibody, human IgG1, kappa, V domains shown, Fully human parental antibody; also called Ab2; SS-12413) VH: QVQVVESGGGVVQPGRSLRLSCAASGFTFSSYGMHWVRQAPGKGLEWVSVIWYEGSNKYYADSVKGRFTISRDNSKNTLYLQMNSLRAEDTAVYYCARGGLLGYYYYYGMDVWGQGTTVTVSS VL: DIQMTQSPSSLSASVGDRVTITCRASQGIRNDLGWYQQKPGKAPKRLIYDASSLQSGVPSRFSGSGSGTEFTLTISSLQPEDFATYYCLQHHSYPWTFGQGTKVEIKR

[-1.29, -1.46]
